Tested on: SNU-423
Test Protocol: cells
Format: functional, cell-based, Homo sapiens
Test Parameters: Homo sapiens, SNU-423
Description: SANGER: Inhibition of human SNU-423 cell growth in a cell viability assay.
pIC50: −log10 of the molar value.
Answer each item with its documented pIC50.

These recorded examples may help you get a feel for the data.
Task: // lookup pIC50 for COc1cccc2c1C(=O)c1c(O)c3c(c(O)c1C2=O)C[C@@](O)(C(=O)CO)C[C@@H]3O[C@H]1C[C@H](N)[C@H](O)[C@H](C)O1
Result: 6.81

Task: // lookup pIC50 for Cc1cn(-c2cc(NC(=O)c3ccc(C)c(Nc4nccc(-c5cccnc5)n4)c3)cc(C(F)(F)F)c2)cn1
Result: < 5.70

Task: // lookup pIC50 for N#Cc1c(O)c2c(-c3ccc(-c4ccccc4O)cc3)csc2[nH]c1=O
Result: < 5.99

Please report pIC50 for every entry that follows.
1. Cn1cnc2c(F)c(Nc3ccc(Br)cc3Cl)c(C(=O)NOCCO)cc21
2. Oc1ccc2ccccc2c1SSc1c(O)ccc2ccccc12

Result:
1. < 5.40
2. < 4.49

Please report pIC50 for every entry that follows.
1. O=C(O)c1ccc(-c2c[nH]c3ncc(-c4ccccc4)cc23)cc1C1CCCC1
2. Cc1cc([N+](=O)[O-])ccc1NS(=O)(=O)c1cc(Cl)ccc1Cl
3. CN(C)C(=N)NC(=N)N

Result:
["< 4.80", 5.14, "< 1.70"]

Task: // lookup pIC50 for Nc1ccn([C@@H]2O[C@H](CO)[C@@H](O)C2(F)F)c(=O)n1
Result: 7.20

---

Tested on: LAMA-84;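 further: growth inhibition of LAMA-84 cells, read out with a cell viability assay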
Test Protocol: cells
Assay type: functional, cell-based, Homo sapiens
Test Parameters: lama-84
Description: SANGER: Inhibition of human LAMA-84 cell growth in a cell viability assay.
Property Label: pIC50
Numbers only, as −log10 of the molar value.

Task: // lookup pIC50 for BLEOMYCIN
Result: 5.37

---

Answer each item with its documented IC50.
System: Calu-6;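 further: growth of human Calu-6 cells, read out by a cell viability assay, IC50 marking inhibition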
Test Protocol: cells
Format: functional, cell-based, Homo sapiens
Test Parameters: Homo sapiens, Calu-6
Description: SANGER: Inhibition of human Calu-6 cell growth in a cell viability assay.

Task: Lab note: need IC50 with Calu-6 for entry CC[C@H](CO)Nc1nc(NCc2ccccc2)c2ncn(C(C)C)c2n1 , please look it up.
Result: > 16000 nM

Task: Lab note: need IC50 with Calu-6 for entry COc1cc2c(Nc3ccc(NC(=O)c4ccccc4)cc3)ncnc2cc1OCCCN1CCOCC1 , please look it up.
Result: > 4000 nM

Task: Lab note: need IC50 with Calu-6 for entry Nc1ccn([C@@H]2O[C@H](CO)[C@@H](O)C2(F)F)c(=O)n1 , please look it up.
Result: 1.73 nM

Please report IC50 for every entry that follows.
1. CO[C@H]1C[C@@H]2CC[C@@H](C)[C@@](O)(O2)C(=O)C(=O)N2CCCC[C@H]2C(=O)O[C@H]([C@H](C)C[C@@H]2CC[C@@H](OC(=O)C(C)(CO)CO)[C@H](OC)C2)CC(=O)[C@H](C)/C=C(\C)[C@@H](O)[C@@H](OC)C(=O)[C@H](C)C[C@H](C)/C=C/C=C/C=C/1C
2. Oc1ccc2ccccc2c1SSc1c(O)ccc2ccccc12
3. CC1(C)CNc2cc(NC(=O)c3cccnc3NCc3ccncc3)ccc21
4. N[C@@H](CSC(c1ccccc1)(c1ccccc1)c1ccccc1)C(=O)O

Result:
["> 200 nM", "> 32000 nM", "> 2000 nM", "427 nM"]

---

Tested on: IST-MES1;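 further: growth inhibition of IST-MES1 cells, measured with a cell viability assay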
Test Protocol: cells
Assay type: functional, cell-based, Homo sapiens
Test Parameters: Homo sapiens, IST-MES1
Description: SANGER: Inhibition of human IST-MES1 cell growth in a cell viability assay.
Property Label: IC50

These recorded examples may help you get a feel for the data.
Task: // lookup IC50 for CS(=O)(=O)c1ccc(C(=O)Nc2ccc(Cl)c(-c3ccccn3)c2)c(Cl)c1
Result: > 10 µM

Task: // lookup IC50 for CCN(CC)CCNC(=O)c1c(C)[nH]c(/C=C2\C(=O)Nc3ccc(F)cc32)c1C
Result: > 8 µM

Task: // lookup IC50 for Cc1ccc(-c2c(C(=O)CCl)n(CCCO)c3ncnc(N)c23)cc1
Result: > 4 µM

Task: // lookup IC50 for Cc1cc([N+](=O)[O-])ccc1NS(=O)(=O)c1cc(Cl)ccc1Cl
Result: 4.85 µM

Task: // lookup IC50 for CCN(CC)CCCCNc1ncc2cc(-c3cc(OC)cc(OC)c3)c(NC(=O)NC(C)(C)C)nc2n1
Result: > 2 µM

Let us examine a further case.
Task: // lookup IC50 for CN(C)C(=N)NC(=N)N
Result: > 20000 µM

---

System: NCI-H1437;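 further: growth inhibition of human NCI-H1437 cells, read out by a cell viability assay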
Test Protocol: cells
Type: functional, cell-based, Homo sapiens
Test Parameters: Homo sapiens, NCI-H1437
Description: SANGER: Inhibition of human NCI-H1437 cell growth in a cell viability assay.
Where a name gives a salt, the structure may show the parent alone.
Answer each item with its documented IC50.

Task: // lookup IC50 for CC1(C)CNc2cc(NC(=O)c3cccnc3NCc3ccncc3)ccc21 [MOTESANIB]
Result: > 2 µM

Task: // lookup IC50 for O=C(O)c1ccc(-c2c[nH]c3ncc(-c4ccccc4)cc23)cc1C1CCCC1 [GSK-650394]
Result: 6.13 µM

Please report IC50 for every entry that follows.
1. CN(C)C(=N)NC(=N)N [METFORMIN]
2. C=C(c1ccc(C(=O)O)cc1)c1cc2c(cc1C)C(C)(C)CCC2(C)C [BEXAROTENE]
3. CC(C)c1ccccc1Cc1cc(C(=O)Nc2ccc(S(=O)(=O)c3ccccc3C(C)(C)C)cc2)c(O)c(O)c1O
4. COC1=CC(c2cc3ccccc3[nH]2)=N/C1=C\c1[nH]c(C)cc1C [OBATOCLAX MESYLATE]
5. COc1cc2c(Nc3ccc(NC(=O)c4ccccc4)cc3)ncnc2cc1OCCCN1CCOCC1

Result:
1: > 20000 µM; 2: > 8 µM; 3: 0.538 µM; 4: 0.408 µM; 5: > 4 µM

---

System: SAOS-2;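 further: growth inhibition of human Saos-2 cells determined by a cell viability assay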
Test Protocol: cells
Type: functional, cell-based, Homo sapiens
Test Parameters: Homo sapiens, SAOS-2
Description: SANGER: Inhibition of human Saos-2 cell growth in a cell viability assay.
pIC50: −log10 of the molar value.
Property Label: pIC50

These recorded examples may help you get a feel for the data.
Task: // lookup pIC50 for Cc1cc([N+](=O)[O-])ccc1NS(=O)(=O)c1cc(Cl)ccc1Cl
Result: 5.16

Task: // lookup pIC50 for O=C(O)c1ccc(-c2c[nH]c3ncc(-c4ccccc4)cc23)cc1C1CCCC1
Result: < 4.80

Continuing:
Task: // lookup pIC50 for CCC/C=C/C=C/C(=O)O[C@H]1/C(=C/C(=O)OC)C[C@H]2C[C@H]([C@@H](C)O)OC(=O)C[C@H](O)C[C@@H]3C[C@H](OC(C)=O)C(C)(C)[C@](O)(C[C@@H]4C/C(=C/C(=O)OC)C[C@H](/C=C/C(C)(C)[C@]1(O)O2)O4)O3
Result: < 8.10

---

Tested on: HT-1080
Test Protocol: cells
Type: functional, cell-based, Homo sapiens
Test Parameters: Homo sapiens, HT-1080
Description: SANGER: Inhibition of human HT-1080 cell growth in a cell viability assay.
Where a name gives a salt, the structure may show the parent alone.
Answer each item with its documented pIC50.
Numbers only, as −log10 of the molar value.

Task: Lab note: need pIC50 with HT-1080 for entry O=C(O)c1ccc(-c2c[nH]c3ncc(-c4ccccc4)cc23)cc1C1CCCC1 , please look it up.
Result: 5.26

Let us examine a further case.
Task: Lab note: need pIC50 with HT-1080 for entry COC1=CC(c2cc3ccccc3[nH]2)=N/C1=C\c1[nH]c(C)cc1C [OBATOCLAX MESYLATE] , please look it up.
Result: 6.29

---

System: BCPAP;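 further: growth inhibition of BCPAP cells, read out in a cell viability assay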
Test Protocol: cells
Format: functional, cell-based, Homo sapiens
Test Parameters: Homo sapiens, BCPAP
Description: SANGER: Inhibition of human BCPAP cell growth in a cell viability assay.
Property Label: pIC50
Numbers only, as −log10 of the molar value.

Please report pIC50 for every entry that follows.
1. Cn1cnc2c(F)c(Nc3ccc(Br)cc3Cl)c(C(=O)NOCCO)cc21
2. CO[C@H]1C[C@@H]2CC[C@@H](C)[C@@](O)(O2)C(=O)C(=O)N2CCCC[C@H]2C(=O)O[C@H]([C@H](C)C[C@@H]2CC[C@@H](OC(=O)C(C)(CO)CO)[C@H](OC)C2)CC(=O)[C@H](C)/C=C(\C)[C@@H](O)[C@@H](OC)C(=O)[C@H](C)C[C@H](C)/C=C/C=C/C=C/1C
3. Cc1cc([N+](=O)[O-])ccc1NS(=O)(=O)c1cc(Cl)ccc1Cl
4. COc1cccc2c1C(=O)c1c(O)c3c(c(O)c1C2=O)C[C@@](O)(C(=O)CO)C[C@@H]3O[C@H]1C[C@H](N)[C@H](O)[C@H](C)O1

Result:
5.67
7.23
5.69
7.28

---

System: CPC-N;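 further: growth inhibition of CPC-N cells, with a cell viability assay as the readout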
Test Protocol: cells
Type: functional, cell-based, Homo sapiens
Test Parameters: Homo sapiens, CPC-N
Description: SANGER: Inhibition of human CPC-N cell growth in a cell viability assay.
Property Label: IC50

These recorded examples may help you get a feel for the data.
Task: // lookup IC50 for C#Cc1cccc(Nc2ncnc3cc(OCCOC)c(OCCOC)cc23)c1
Result: > 2 µM

Task: // lookup IC50 for COc1cc(-c2nn([C@H]3CC[C@H](N4CCN(C(C)=O)CC4)CC3)c3ncnc(N)c23)ccc1NC(=O)c1cc2ccccc2n1C
Result: > 5.12 µM

Task: // lookup IC50 for OCCCNc1cc(-c2ccnc(Nc3cccc(Cl)c3)n2)ccn1
Result: > 0.256 µM

Task: // lookup IC50 for Cc1cc([N+](=O)[O-])ccc1NS(=O)(=O)c1cc(Cl)ccc1Cl
Result: > 32 µM

Task: // lookup IC50 for COc1cc2ncn(-c3cc(OCc4ccccc4S(C)(=O)=O)c(C#N)s3)c2cc1OC [GSK-319347A]
Result: > 5 µM

Task: // lookup IC50 for N[C@@H](CSC(c1ccccc1)(c1ccccc1)c1ccccc1)C(=O)O
Result: 2.46 µM

Task: // lookup IC50 for COc1cccc2c1C(=O)c1c(O)c3c(c(O)c1C2=O)C[C@@](O)(C(=O)CO)C[C@@H]3O[C@H]1C[C@H](N)[C@H](O)[C@H](C)O1
Result: 0.0684 µM

Task: // lookup IC50 for CCN(CC)CCNC(=O)c1c(C)[nH]c(/C=C2\C(=O)Nc3ccc(F)cc32)c1C
Result: > 8 µM

Please report IC50 for every entry that follows.
1. C=C(c1ccc(C(=O)O)cc1)c1cc2c(cc1C)C(C)(C)CCC2(C)C
2. COc1cc(N2CCN(C)CC2)ccc1Nc1ncc2c(n1)N(C)c1ccccc1C(=O)N2C

Result:
["> 8 µM", "> 8 µM"]

These data points were gathered from ChEMBL document CHEMBL1201861.
